measurement label: melting point (°C)
Expressed in °C, but write only the number.

compound	measurement label	result number
CCCCCCCOO	melting point	35.5
Cc1ccccc1C=C1C(=O)OC(C)(C)OC1=O	melting point	142
C[Si](C)(C)C#CC1(O)Cc2ccccc21 (configuration not stated)	melting point	47
CCOC(=O)CC(C(C)=O)C(=O)OCC (configuration not stated)	melting point	-8
c1ccc(CC(=NNc2cccc(NN=C(Cc3ccccc3)c3ccccc3)c2)c2ccccc2)cc1	melting point	164
Brc1cccc2c(CNCc3cccc4c(Br)cccc34)cccc12	melting point	142
O=C(OC(=O)c1ccc(C(F)(F)F)cc1)c1ccc(C(F)(F)F)cc1	melting point	130

Then this compound:
Item under review: CCNc1cc(=O)oc2ccccc12 . Reported melting point?
150

---

Consider the following molecules and their measured melting point readings.
Express your answer in °C, writing the number without its unit.

Past entries and their recorded results:
molecule	value units	melting point
CC1=CCC(C)C1=NNc1ccc([N+](=O)[O-])cc1[N+](=O)[O-] (configuration not stated)	°C	198
CSCCC=O	°C	-58
CC(=O)/C=C1\NC(=O)c2ccccc21	°C	108

Fill in the blank: the reported melting point of C=CC(=C)Cl is ____.
-130

Another molecule to check: CCOP(=O)(NC(C)C)Oc1ccc(SC)c(C)c1 (configuration not stated)
49

Please do the same for CC1(C)CC(=O)C(=NNc2ccc(Br)cc2)C(=O)C1 as well.
204

Please do the same for Nc1ccc2c(c1)C(=O)OC21c2ccc(O)cc2Oc2cc(O)ccc21 as well.
223

For COP(=S)(OC)Oc1ccc(Sc2ccc(OP(=S)(OC)OC)cc2)cc1 then?
30.3

Then this molecule: Brc1ccsc1Br
-17.5

CCCCCCCCCCC(=O)OCC ?
-15

Subsequent entry: Cn1c(=O)c(C2=Nc3ccccc3SC(c3cccs3)C2)c(O)c2ccccc21 (configuration not stated)
224

Quick one: COC(=O)[C@@H](N)Cc1ccc(O)cc1
137

Queued: Cc1ccc(C#N)c(F)c1
53

Follow-up entry: c1ccc2c3c([nH]c2c1)CCCCC3
145

C=CC(Cl)CCl (configuration not stated) , same question.
-61

---

Output label 1 for melting point not less than 200 °C; output label 0 otherwise.

compound	cat
O=C(O)c1cncc(Br)c1	label 0
NC(=O)c1ccnc(I)c1	label 0
CC(C)CCCCCO	label 0

Given CC(=O)OC1C(c2ccc(=O)oc2)C2(C)CCC3C(CCC4(O)CC(O)CCC34C)C23OC13 (stereo not drawn) , state whether its melting point is at least 200 °C.
label 1

Next up: Cc1cc(=O)n2nc(C(F)(F)F)nc2[nH]1
label 1

Further, for CC(=O)c1ccc(-c2cccc([N+](=O)[O-])c2)cc1 ?
label 0

---

Values of melting point strictly less than 100 °C map to label 1, and values of at least 100 °C map to label 0.

Solved cases (5 shown):
molecule	cat
O=C(O)c1ccc(NC(=O)C(Cc2ccc(O)cc2)NC(=O)c2ccccc2)cc1 (configuration not stated)	label 0
CCCOC(=O)c1cc(O)c(O)c(O)c1	label 0
O=[N+]([O-])c1cccc(C=NNc2ccccc2)c1	label 0
C=Cc1ccco1	label 1
C=CCC1(C(C)CC)C(=O)NC(=O)NC1=O (configuration not stated)	label 0

Could you now look at the following molecule, please?
Problem: For the molecule COc1ccc(C2C(C#N)=C(N)Oc3c2c(C(F)(F)F)nn3-c2ccccc2)cc1 (configuration not stated) , is melting point under 100 °C?
label 0

---

melting point overview

Guide cases for melting point, answers given:
compound	result
OC1CC(O)C(O)CO1 (stereo not given)	69 to 72 °C
CC1=NC2(CCCCC2)[N+]([O-])=C1	112 to 116 °C
O=C(Cl)c1nc2ccccc2s1	150 °C
CCSCC[C@@H](N)C(=O)O	278 °C
Cc1ccc(-c2cc(N)n(-c3ccccc3)n2)cc1	173 to 176 °C

What value of measured melting point is listed for CCOC(=O)c1ccc(N=C=S)cc1 ?
57 °C

---

The following molecules are listed with their measured melting point values.

I would be grateful if you could share the reported melting point for COc1ccc(CC(=O)O)c(OC)c1OC .
99 to 101 °C

Consider next the molecule O=C(O)c1sccc1Br in the same way.
196 °C

---

// melting point lookup, one value per entry
Give just the number in °C; leave the unit off.

The examples below pair each entry with its known result.
molecule	melting point / °C
CC(=O)OCC(=O)O	67.5
O=C(NC(Cc1ccc(Br)s1)C(=O)O)OCC1c2ccccc2-c2ccccc21 (stereo not drawn)	158
O=C1C2=C(O)CCCC2Cc2ccccc21 (stereo not drawn)	79
CC1=C(C)C(=O)c2ccccc2C1=O	127
CC1CCCCN1CCCOC(=O)c1ccc(Cl)c(Cl)c1 (stereo not drawn)	25

Here is another molecule to look at.
melting point for O=C(O)CCCCCCCCCCBr ?
57

---

The following molecules are listed with their measured melting point values.

Solved entries:
molecule	melting point
O=C(CCl)c1ccc(C(=O)CCl)cc1	153 °C
O=C(O)C1c2ccccc2C(=O)N(Cc2ccc(F)cc2)C1c1ccncc1 (centres undefined)	243 to 245 °C
O=Cc1cc(Cl)cc(Cl)c1[N+](=O)[O-]	91 °C

State the recorded melting point for this entry: NC(=O)c1ccc(CC(=O)c2ccc(Cl)cc2)cc1
221 to 223 °C

Let us now turn to O=Cc1ccccc1/C=C/c1ccc([N+](=O)[O-])cc1[N+](=O)[O-]
186 °C

Another molecule: Cc1nc(N)nc2c1c(=O)n(-c1ccccc1)c1ccccc21
233 °C

Now the molecule NS(=O)(=O)C=Cc1ccccc1
138 to 140 °C

---

measurement label: melting point (°C)
Respond numerically; units are °C and should not be typed.

Examples with their reported melting point follow.
compound	melting point (°C)
CC(=O)OCC#CCOC(C)=O	28
CCOC(=O)C(=CN)C(=O)OCC	63
O=[N+]([O-])c1ccccc1-c1ccccc1[N+](=O)[O-]	126
Nc1cnn(-c2ccccc2)c(=O)c1Br	224
Cc1ccc(O)c(C=O)c1	56

Which melting point reading was recorded for the compound NC(=O)/C(=N\Nc1cccc(C(F)(F)F)c1)c1nc2ccccc2s1 ?
190

Query N#CC(=NOCC1OCCO1)c1ccccc1 next
77.7

Now give it for C=C1C(=O)C23C(OC)CC4C5(C)CCCC4(COC5)C2C(OC(C)=O)CC1C3O (centres undefined) too.
183

Request: CC(=O)Oc1cccc(N=Nc2cccc(OC(C)=O)c2)c1
144

# iterate: OCCCCCCCCCCCCCCO
85.8

Consider next the compound CNC(=O)Oc1ccc2c(c1)C1(C)CCOC1N2C (centres undefined) in the same way.
124

Now this one: O=C1CCCC2=C1[C@@H](c1cccc([N+](=O)[O-])c1)[C@@H]1C(=O)CCC[C@@]1(O)O2
219

Here is the next compound: C[Si](C)(C)O[Si](C)(C)O[Si](C)(C)O[Si](C)(C)O[Si](C)(C)C
-80

Then O=C1C(=C2C=Cc3ccccc3N2)C(=O)c2c1cccc2[N+](=O)[O-] ?
360

Queued: O=C1NN=C(C(F)(F)F)C1=NNc1cc(Cl)ccc1Cl
214

---

measurement label: melting point (°C)
Report only the number, with the unit °C understood.

Worked cases, melting point given:
structure string	measurement label	value units	result number
O=C(c1ccccc1)c1ccc(F)c(C(F)(F)F)c1	melting point	°C	46
S=C=Nc1c(Cl)cccc1Cl	melting point	°C	43

Next:
# get_value(readout='melting point', item= CN1C(=O)C(=NNc2ccc(F)cc2)C(=O)N(C)C1=O )
191

---

// f strictly below 70 °C in melting point; t otherwise

compound	cat
O=C(O)c1cc(O)c(Br)c(O)c1	t

Say whether CC1=C(C(=O)OC(C)C)C(c2ccc([N+](=O)[O-])cc2)NC(=S)N1 (stereo unspecified) shows melting point of 70 °C or more.
t

Entry to check: Clc1ccc2oc3c(Cl)c(Cl)c(Cl)c(Cl)c3c2c1
t

Can you handle COc1ccc(OC)c(C(=O)O)c1 next?
t

---

Recorded melting point by entry
Could you give me the number in °C? Just the number is fine.

molecule	result number
COc1c(OC)c(OC(C)=O)c2c(OC)cccc2c1OC(C)=O	69.5
CCCCN(CCCC)CCCC	-70
CC1(O)C(=O)CC2CC1C2(C)C (configuration not stated)	38.5
CCCCCCCCCCCCCCCC(OC)OC	10

Would you kindly share the measured melting point for COc1cc(CC#N)cc(OC)c1OC ?
77

Also need FC(F)C(F)C(F)(F)F (configuration not stated) , thanks.
-156

Do the same for O=C(Nc1c(Cl)cc(Cl)cc1Cl)C(F)(F)C(F)(F)C(F)(F)C(F)(F)C(F)(F)C(F)(F)C(F)(F)C(F)(F)F please
115

Subsequent entry: O=C(O)CNC(=O)c1ccccc1
222

Input CC12NC(Cc3ccccc31)c1ccccc12 (configuration not stated)
68.8

Entry to check: CCCC(C)I (configuration not stated)
-50

// repeat for CCC[N+](=O)[O-] and report
-108

Repeat with O=C(O)C1=CC(=C(c2ccc(O)c(C(=O)O)c2)c2ccc(O)c(C(=O)O)c2)C=CC1=O
300

And what about the molecule CCOC(=O)c1ccccc1C(=O)c1ccccc1 ?
59.5

And the next one, Cc1c(C)c(C)c(CC#N)c(C)c1C ?
112

Also CCCCCCC(=O)OCCCCC ?
-50

Next entry: CC(O)C#N (configuration not stated)
-40

Same read-out for CC(C)(C)C1CCCC1 ?
-96

Provenance of the data: a melting point compilation (Tetko et al.)
